test_target: RORγt (Homo sapiens, UniProt P51449)
test_details: RORγt binding test using fluorescent-labeled cholesterol (TR-FRET)
run_parameters: read-out: Binding inhibitory rate of fluorescent-labeled cholesterol to RORγt at test compound 1 μM (%)
measurement_label: inhibition at 1 µM (%)
Number in %, nothing else.

Which inhibition at 1 µM value belongs to CCOc1ccc2c(c1)CCN(C(=O)Cc1cc(O)no1)[C@H]2C(=O)Nc1cc(F)c(C(C)(C)COCC(F)F)c(F)c1 [Example 155] ?
101

Can you handle COc1ccc2c(n1)CCN(C(=O)Cc1cc(O)no1)[C@H]2C(=O)Nc1ccc([Si](C)(C)C)c(F)c1 [Example 80] next?
102

// next record CCOc1ccc2c(c1)CCN(C(=O)Cc1cc(O)no1)[C@H]2C(=O)Nc1ccc(C(C)(C)C)c(F)c1 [Example 67]
103

// repeat for COc1ccc2c(c1)CCN(C(=O)c1ccc(=O)[nH]c1)C2C(=O)Nc1ccc([Si](C)(C)C)c(F)c1 (stereo not shown) [Example 4] and report
101

* * *

test_target: RORγt (Homo sapiens)
test_details: Cofactor recruitment test (Alpha Screen, biotinylated SRC-1 peptide)
Format: biochemical
run_parameters: read-out: Signal value inhibitory rate at test compound 1 μM (%)
Documented inhibition at 1 µM across a set of compounds
State the answer as a number, implicitly in %.

Consider the reported inhibition at 1 µM for these compounds:
[[record]]
compound = "COc1ccc2c(c1)CCN(C(=O)c1cc(O)no1)[C@H]2C(=O)Nc1cc(F)c2c(c1)CCC2(C)C [Example 68]"
measurement_label = "inhibition at 1 µM"
readout_unit = "%"
reported = 73

[[record]]
compound = "CCOc1ccc2c(c1)CCN(C(=O)Cc1cc(O)no1)C2C(=O)Nc1cc(F)c2c(c1)CCC2(C)C (stereo not drawn) [Example 55]"
measurement_label = "inhibition at 1 µM"
readout_unit = "%"
reported = 73.4


# lookup: inhibition at 1 µM of COc1ccc2c(c1)CCN(C(=O)Cc1cc(O)no1)[C@H]2C(=O)Nc1ccc([Si](C)(C)C)c(F)c1 [Example 73]
90

* * *

The following compounds are listed with their measured inhibition at 1 µM values.
test_target: RORγt (Homo sapiens)
Sequence (P51449 1-497 isoform P51449-2): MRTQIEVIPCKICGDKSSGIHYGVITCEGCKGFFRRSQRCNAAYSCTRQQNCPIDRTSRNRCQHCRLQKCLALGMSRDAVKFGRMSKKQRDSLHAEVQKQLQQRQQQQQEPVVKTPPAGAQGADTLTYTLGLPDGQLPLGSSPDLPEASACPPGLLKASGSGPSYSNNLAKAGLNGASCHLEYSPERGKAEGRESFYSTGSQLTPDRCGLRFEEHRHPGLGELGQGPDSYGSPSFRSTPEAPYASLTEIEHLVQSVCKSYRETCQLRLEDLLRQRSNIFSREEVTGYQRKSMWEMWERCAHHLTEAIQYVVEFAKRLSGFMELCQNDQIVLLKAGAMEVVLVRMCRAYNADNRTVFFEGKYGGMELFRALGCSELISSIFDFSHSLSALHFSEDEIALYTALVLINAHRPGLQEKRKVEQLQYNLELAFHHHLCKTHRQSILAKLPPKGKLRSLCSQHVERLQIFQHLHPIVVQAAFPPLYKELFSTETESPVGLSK
test_details: RORγt binding test using fluorescent-labeled cholesterol (TR-FRET)
run_parameters: read-out: Binding inhibitory rate of fluorescent-labeled cholesterol to RORγt at test compound 1 μM (%)
Number only, in %; omit the unit.

Some solved entries appear below for comparison.
[[record]]
compound = "COCc1ccc2c(c1)CCN(C(=O)CCCC(=O)O)[C@H]2C(=O)Nc1ccc([Si](C)(C)C)c(F)c1"
measurement_label = "inhibition at 1 µM"
reported = 102

[[record]]
compound = "CC[Si](C)(C)c1c(F)cc(NC(=O)[C@H]2c3ccc(OC)nc3CCN2C(=O)CCCC(=O)O)cc1F"
measurement_label = "inhibition at 1 µM"
reported = 103

[[record]]
compound = "COc1ccc2c(c1)CCN(C(=O)c1cc(O)no1)[C@H]2C(=O)Nc1ccc([Si](C)(C)C)c(F)c1"
measurement_label = "inhibition at 1 µM"
reported = 102

[[record]]
compound = "COc1ccc2c(c1)CCN(C(=O)Cc1cc(O)no1)[C@H]2C(=O)Nc1cc(F)c(C(C)(C)COCC2CC2)c(F)c1"
measurement_label = "inhibition at 1 µM"
reported = 99

[[record]]
compound = "COc1ccc2c(c1)CCN(C(=O)c1cc(O)no1)[C@H]2C(=O)Nc1cc(F)c(C(C)(C)COCC2CC2)c(F)c1"
measurement_label = "inhibition at 1 µM"
reported = 101


So what does the record say about inhibition at 1 µM for CCOc1ccc2c(n1)CCN(C(=O)c1cc(O)no1)[C@H]2C(=O)Nc1ccc([Si](C)(C)C)c(F)c1 ?
103

# iterate: COc1ccc2c(c1)CCN(C(=O)CCCC(=O)O)[C@H]2C(=O)Nc1cc(F)c(C(C)(C)COCC2CC2)c(F)c1
100
